Tested on: BT-549 breast
Assay: NCI tumour cell line growth inhibition, 48 h
Consider the following compounds and their measured TGI readings.
measurementKind: TGI (µM)

1) CC1=C(C#N)C2C(=C(N)Oc3ccccc32)C(N)=N1 (centres undefined) : 93.5
2) O=C1Oc2ccccc2C(=O)/C1=C/N1C(=O)N/C(=C\c2cccc(O)c2)C1=O : 73.2
3) O=c1oc2ccc(Cl)cc2c(=O)n1-c1cc(C(F)(F)F)cc(C(F)(F)F)c1 : 0.86
4) COc1ccc(/C=C/C(=O)c2ccc3cc(OC)c(OC)cc3c2)cc1OC : 8.39

###

Tested on: HS 578T breast
Assay: NCI tumour cell line growth inhibition, 48 h; in the data active means GI50 below about 0.43 µM; inactive means the rest
Where a SMILES comes first, the peptide text is derived from it. [ ]: non-standard residue; d: D form. NMeY = CN[C@@H](Cc1ccc(O)cc1)C(=O)O; dNMeF = CN[C@H](Cc1ccccc1)C(=O)O; Sar = CNCC(=O)O
Labels: active, inactive

1) C#C[C@@]1(O)[C@@H](CO)O[C@@H](n2ccc3c(N)ncnc32)[C@@H]1O : inactive
2) CC[C@H](C)[C@@H]1NC(=O)[C@H](Cc2ccc(O)cc2)N(C)C(=O)[C@H](Cc2ccccc2)NC(=O)CN(C)C(=O)[C@@H]2CCCN2C(=O)[C@@H](Cc2ccccc2)N(C)C(=O)[C@H](CC(C)C)NC1=O (cyclo(F[NMeY]IL[dNMeF]P[Sar])) : active
3) O=C1c2ccccc2-c2n[nH]c3cccc1c23 : inactive
4) Nc1ccn(C2CC(O)C(CO)O2)c(=O)n1 (stereo not drawn) : inactive
5) Fc1ccc(-c2nnc3sc(COc4ccccc4Cl)nn23)cc1Cl : inactive
6) CN(C)C(=O)c1cc2cnc(Nc3ccc(-c4csc5c(=O)cc(N6CCNCC6)oc45)cc3)nc2n1C1CCCC1 : inactive
7) CN1CCN(Cc2ccc(NC(=O)c3nc4ccc5[nH]ncc5c4c4c3CCC4)cc2C(F)(F)F)CC1 : inactive
8) CCN(CC)CCCOc1cc(O)c2c(=O)cc(-c3ccccc3)oc2c1 : inactive
